Value source: BindingDB's records for doi:10.1021/jm200691d

# assayed target: Acetylcholinesterase (Homo sapiens)
# test protocol: Inhibition of human recombinant AChE-induced amyloid beta (1-40) aggregation assessed as fibril formation after 24 hrs by thioflavin T-based fluorometric assay
measure: IC50 (µM)
One number for each entry, in µM.

Please look up its IC50: CCN(CCCCCC=Nc1cc(O)c2ccccc2c1O)Cc1ccccc1OC
45

====

# assayed target: Acetylcholinesterase (Homo sapiens, UniProt P22303)
# Sequence (P22303 whole entry): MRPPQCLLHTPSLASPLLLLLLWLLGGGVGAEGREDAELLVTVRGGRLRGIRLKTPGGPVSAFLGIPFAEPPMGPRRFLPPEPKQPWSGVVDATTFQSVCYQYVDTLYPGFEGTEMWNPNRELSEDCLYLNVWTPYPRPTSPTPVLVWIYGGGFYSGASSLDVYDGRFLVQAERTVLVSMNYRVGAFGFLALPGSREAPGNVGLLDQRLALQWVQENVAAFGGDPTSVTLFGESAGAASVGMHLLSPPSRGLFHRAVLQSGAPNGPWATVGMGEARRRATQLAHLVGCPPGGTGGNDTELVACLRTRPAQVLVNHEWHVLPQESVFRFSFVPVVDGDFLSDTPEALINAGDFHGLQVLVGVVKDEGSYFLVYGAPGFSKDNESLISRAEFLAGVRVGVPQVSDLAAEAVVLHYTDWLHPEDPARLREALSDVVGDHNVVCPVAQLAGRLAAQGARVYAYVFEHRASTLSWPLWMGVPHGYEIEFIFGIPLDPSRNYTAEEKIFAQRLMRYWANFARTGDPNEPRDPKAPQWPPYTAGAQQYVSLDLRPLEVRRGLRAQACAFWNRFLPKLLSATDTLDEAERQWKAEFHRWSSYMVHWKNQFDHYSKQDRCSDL
# test protocol: Inhibition of human recombinant AChE using acetylthiocholine iodide as substrate after 20 mins preincubation by Ellman method
measure: pIC50
Numbers only, as −log10 of the molar value.

Please look up its pIC50: CCN(CCCCCC=Nc1cc(O)c2ccccc2c1O)Cc1ccccc1OC
4.35
